Reference for the values: ChEMBL document CHEMBL5537174

Assay: Half life in BALB/c nude mouse at 10 mg/kg, ip measured upto 24 hrs by LC-MS/MS analysis
Format: ADME, organism-based
Conditions: in vivo
REPORTED_ENDPOINT: half-life (h)

COMPOUND	READING
COc1cc2nc(C)nc(N[C@H](C)c3cc(N)cc(C(F)(F)F)c3)c2cc1OCC1(CN(C)C(=O)CCCCCCNc2cccc3c2C(=O)N(C2CCC(=O)NC2=O)C3=O)CC1 (stereo partly specified)	4.05

* * *

Assay: AUC (0 to infinity) in BALB/c nude mouse at 10 mg/kg, ip measured upto 24 hrs by LC-MS/MS analysis
Format: ADME, organism-based
Details: in vivo

COMPOUND	UNIT_TEXT	AUC(0-inf)
COc1cc2nc(C)nc(N[C@H](C)c3cc(N)cc(C(F)(F)F)c3)c2cc1OCC1(CN(C)C(=O)CCCCCCNc2cccc3c2C(=O)N(C2CCC(=O)NC2=O)C3=O)CC1 (stereo partly specified)	ng·h/mL	4380

* * *

Assay: Tmax in BALB/c nude mouse at 10 mg/kg, ip measured upto 24 hrs by LC-MS/MS analysis
Assay type: ADME, organism-based
Settings: in vivo

COMPOUND	Tmax
COc1cc2nc(C)nc(N[C@H](C)c3cc(N)cc(C(F)(F)F)c3)c2cc1OCC1(CN(C)C(=O)CCCCCCNc2cccc3c2C(=O)N(C2CCC(=O)NC2=O)C3=O)CC1 (stereo partly specified)	1 h

* * *

System: NCI-H358
Test: Antiproliferative activity against human NCI-H358 cells assessed as inhibition of cell proliferation incubated for 7 days by celltiter-glo 3D assay
Assay type: functional, cell-based
Conditions: NCI-H358, 168 h
Recorded measurements of IC50, one per entry

COMPOUND	IC50, nM
COc1cc2nc(C)nc(N[C@H](C)c3cc(N)cc(C(F)(F)F)c3)c2cc1OCC1(CN(C)C(=O)CCCCCNc2cccc3c2C(=O)N(C2CCC(=O)NC2=O)C3=O)CC1 (stereo not given in full)	334
COc1cc2nc(C)nc(N[C@H](C)c3cc(N)cc(C(F)(F)F)c3)c2cc1OCC1(CN(C)C(=O)CCC(=O)N(C)C2CCC(Nc3cccc4c3C(=O)N(C3CCC(=O)NC3=O)C4=O)CC2)CC1 (stereo not given in full)	927
COc1cc2nc(C)nc(N[C@H](C)c3cc(N)cc(C(F)(F)C(C)(C)O)c3)c2cc1OCC1(CN(C)C(=O)CCCCCCNc2cccc3c2C(=O)N(C2CCC(=O)NC2=O)C3=O)CC1 (stereo not given in full)	220
COc1cc2nc(C)nc(N[C@H](C)c3cc(N)cc(C(F)(F)F)c3)c2cc1OCC1(CN(C)C(=O)CCCCCCOc2cccc3c2C(=O)N(C2CCC(=O)NC2=O)C3=O)CC1 (stereo not given in full)	75
COc1cc2nc(C)nc(N[C@H](C)c3cccc(C#N)c3C)c2cc1OCC1(CN(C)C(=O)CCCCCCNc2cccc3c2C(=O)N(C2CCC(=O)NC2=O)C3=O)CC1 (stereo not given in full)	2050

* * *

Tested on: NCI-H358
Assay: Antiproliferative activity against human NCI-H358 cells assessed as inhibition of cell proliferation incubated for 7 days by celltiter-glo 3D assay
Type: functional, cell-based
Conditions: NCI-H358, 168 h
REPORTED_ENDPOINT: IC50 (nM)

MOLECULE	UNIT_TEXT	READING
COc1cc2nc(C)nc(N[C@H](C)c3cc(N)cc(C(F)(F)F)c3)c2cc1OCC1(CN(C)C(=O)CCCCCCNc2cccc3c2CN(C2CCC(=O)NC2=O)C3=O)CC1 (some centres not stated)	nM	47
COc1cc2nc(C)nc(N[C@H](C)c3cc(N)cc(C(F)(F)F)c3)c2cc1OCC1(CN(C)C(=O)CCCCCCNc2ccc3c(c2F)C(=O)N(C2CCC(=O)NC2=O)C3=O)CC1 (some centres not stated)	nM	4180
COc1cc2nc(C)nc(N[C@H](C)c3cc(N)cc(C(F)(F)F)c3)c2cc1OCC1(CN(C)C(=O)CCCCCCNc2cccc3c2C(=O)N(C2CCC(=O)N(C)C2=O)C3=O)CC1 (some centres not stated)	nM	1380
COc1cc2nc(C)nc(N[C@H](C)c3cc(N)cc(C(F)(F)F)c3)c2cc1OCC1(CN(C)C(=O)CCCCCCNc2c(F)ccc3c2C(=O)N(C2CCC(=O)NC2=O)C3=O)CC1 (some centres not stated)	nM	63
COc1cc2nc(C)nc(N[C@H](C)c3cccc(C(F)F)c3F)c2cc1OCC1(CN(C)C(=O)CCCCCCNc2cccc3c2C(=O)N(C2CCC(=O)NC2=O)C3=O)CC1 (some centres not stated)	nM	216
COc1cc2nc(C)nc(N[C@H](C)c3cc(N)cc(C(F)(F)F)c3)c2cc1OCC1(CN(C)C(=O)CCCN(C)C2CCC(Nc3cccc4c3C(=O)N(C3CCC(=O)NC3=O)C4=O)CC2)CC1 (some centres not stated)	nM	814
COc1cc2nc(C)nc(N[C@H](C)c3cc(N)cc(C(F)(F)F)c3)c2cc1OCC1(CN(C)C(=O)CCNc2cccc3c2C(=O)N(C2CCC(=O)NC2=O)C3=O)CC1 (some centres not stated)	nM	2890
COc1cc2nc(C)nc(N[C@H](C)c3cc(N)cc(C(F)(F)F)c3)c2cc1OCC1(CN(C)C(=O)CCCCCC#Cc2cccc3c2C(=O)N(C2CCC(=O)NC2=O)C3=O)CC1 (some centres not stated)	nM	591
CNCC1(COc2cc3c(N[C@H](C)c4cc(N)cc(C(F)(F)F)c4)nc(C)nc3cc2OC)CC1	nM	102
COc1cc2nc(C)nc(N[C@H](C)c3cc(N)cc(C(F)(F)F)c3)c2cc1OCC1(CN(C)C(=O)C2CCC(NC3CCN(c4ccc5c(c4)C(=O)N(C4CCC(=O)NC4=O)C5=O)CC3)CC2)CC1 (some centres not stated)	nM	513
COc1cc2nc(C)nc(N[C@H](C)c3cc(N)cc(C(F)(F)F)c3)c2cc1OCC1(CN(C)C(=O)CN2CCN(C3CN(c4ccc5c(c4)C(=O)N(C4CCC(=O)NC4=O)C5=O)C3)CC2)CC1 (some centres not stated)	nM	1200
COc1cc2nc(C)nc(N[C@H](C)c3cc(N)cc(C(F)(F)F)c3)c2cc1OCC1(CN(C)C(=O)COCCCCNc2cccc3c2C(=O)N(C2CCC(=O)NC2=O)C3=O)CC1 (some centres not stated)	nM	114
